- Target Entity: glutathione S-transferase (GST)-fused full-length human Syk protein (Homo sapiens)
- Construct: (GST)-fused full-length human Syk protein; GST (glutathione S-transferase); purchased Carna Biosciences
- Protocol Summary: Syk enzyme assay
- Format: biochemical
- Assay Context: Syk enzyme assay, Test Example 1; read-out: IC50 of Syk-inhibitory activity
Provide the recorded IC50 for the entries that follow.

IN: What does the record list as IC50 for CC(C)CC(Nc1nc(Nc2ccc3ncccc3c2)c(C(N)=O)cc1F)[C@H](C)N (stereo partly shown) ?
OUT: < 10 nM

IN: Next up: COc1nccc(Nc2nc(N[C@@H]3CCCC[C@@H]3N)c(F)cc2C(N)=O)c1F
OUT: 10 to 50 nM

IN: Next up: CN1CCN(c2cncc(Nc3nc(N[C@@H]4CCCC[C@@H]4N)c(F)cc3C(N)=O)c2)CC1 (relative stereo)
OUT: 10 to 50 nM

IN: Next up: CCOCCOc1ccc2cc(Nc3nc(NC4CCCCC4N)c(F)cc3C(N)=O)ccc2n1 (stereo not shown)
OUT: < 10 nM

IN: Next up: CCC[C@@H](Nc1nc(Nc2ccnc(-c3cccc(OC)c3F)c2)c(C(N)=O)cc1F)[C@H](C)N
OUT: < 10 nM

IN: Next up: CCCc1nn(CC(F)F)c2ccc(Nc3nc(N[C@@H]4CCCC[C@@H]4N)c(F)cc3C(N)=O)cc12
OUT: < 10 nM

IN: Next up: NC(=O)CNc1nc(Nc2ccc3ncccc3c2)c(C(N)=O)cc1F
OUT: 50 to 100 nM

IN: Next up: CC(C)C[C@H](CN)Nc1nc(Nc2ccnc(-c3ccccc3F)c2)c(C(N)=O)cc1F
OUT: < 10 nM

IN: Next up: CCC[C@@H](Nc1nc(Nc2ccc3cnn(C)c3c2)c(C(N)=O)cc1F)[C@H](C)N
OUT: < 10 nM

IN: Next up: COCCOc1cc(Nc2nc(N[C@@H](CN)CC(C)C)c(F)cc2C(N)=O)ccn1
OUT: < 10 nM

IN: Next up: COCCOc1ccc2cc(Nc3nc(N[C@@H]4CCCC[C@@H]4N)c(F)cc3C(N)=O)cnc2c1 [Example 006-173]
OUT: < 10 nM

IN: Next up: Cc1nccc(Nc2nc(NC3CCCCC3N)c(F)cc2C(N)=O)c1F (stereo not shown)
OUT: 10 to 50 nM

IN: Next up: CC[C@@H](Nc1nc(Nc2ccnc(-c3ccc(OC)cc3)c2)c(C(N)=O)cc1F)[C@H](C)N
OUT: < 10 nM

IN: Next up: COCCOc1ncc(Nc2nc(N[C@@H]3CCCC[C@@H]3N)c(F)cc2C(N)=O)cc1-n1ccnn1
OUT: 50 to 100 nM

IN: Next up: Cc1cc(Nc2nc(NC3CCCCC3N)c(F)cc2C(N)=O)cnc1C (stereo not shown)
OUT: < 10 nM

IN: Next up: NC(=O)c1cc(F)c(NC2CCCCC2N)nc1Nc1cncc(-c2cn[nH]c2)c1 (stereo not shown)
OUT: < 10 nM
